Numbers sourced from patent US20220033520A1.

- target or system: human FcRn complex (FCGRT and beta-2 microglobulin), recombinant, purified (human) (UniProt P55899)
- Sequence (P55899 24-297 limits assumed, chain 1 of 2): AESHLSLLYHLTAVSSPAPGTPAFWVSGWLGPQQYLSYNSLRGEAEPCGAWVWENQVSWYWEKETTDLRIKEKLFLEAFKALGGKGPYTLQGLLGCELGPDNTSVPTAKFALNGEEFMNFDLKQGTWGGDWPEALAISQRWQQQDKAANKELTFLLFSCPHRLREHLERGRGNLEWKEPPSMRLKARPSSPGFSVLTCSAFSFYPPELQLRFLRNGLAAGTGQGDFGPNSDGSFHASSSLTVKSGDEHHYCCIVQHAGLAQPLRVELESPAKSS
- Sequence (P61769 21-119 limits assumed, chain 2 of 2, further chain): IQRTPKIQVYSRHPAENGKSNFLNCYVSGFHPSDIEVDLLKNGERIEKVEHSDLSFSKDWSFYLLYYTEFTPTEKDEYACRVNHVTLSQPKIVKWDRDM
- experiment summary: SPR, anti-human Fab capture, pH 6, steady state
Recorded measurements of pKd, one per entry
Lab note — pKd values are minus log10 of concentrations in M.

Examples with their reported pKd follow.
binder	pKd
anti-BACE1 hIgG4 antibody, Fc modification T94 (M252Y/N286E/N434Y) (antibody, part only; not given: Anti-BACE1 variable domains, not shown: another chain or arm of the molecule) Fc: PAPEFLGGPSVFLFPPKPKDTLYISRTPEVTCVVVDVSQEDPEVQFNWYVDGVEVHEAKTKPREEQFNSTYRVVSVLTVLHQDWLNGKEYKCKVSNKGLPSSIEKTISKAKGQPREPQVYTLPPSQEEMTKNQVSLTCLVKGFYPSDIAVEWESNGQPENNYKTTPPVLDSDGSFFLYSRLTVDKSRWQEGNVFSCSVMHEALHYHYTQKSLSLSLGK	8.15
anti-Abeta hIgG4 antibody, Fc modification T3 (M252Y/Q311I/N434Y) (antibody, part only; not given: anti-Abeta variable domains, not shown: another chain or arm of the molecule) Fc: PAPEFLGGPSVFLFPPKPKDTLYISRTPEVTCVVVDVSQEDPEVQFNWYVDGVEVHNAKTKPREEQFNSTYRVVSVLTVLHIDWLNGKEYKCKVSNKGLPSSIEKTISKAKGQPREPQVYTLPPSQEEMTKNQVSLTCLVKGFYPSDIAVEWESNGQPENNYKTTPPVLDSDGSFFLYSRLTVDKSRWQEGNVFSCSVMHEALHYHYTQKSLSLSLGK	8.04

Attention now shifts to the item below.
Problem: For the binder anti-Abeta hIgG4 antibody, Fc modification Q6 (M252Y/M428L/N434Y/Y436I) (antibody, part only; not given: anti-Abeta variable domains, not shown: another chain or arm of the molecule) Fc: PAPEFLGGPSVFLFPPKPKDTLYISRTPEVTCVVVDVSQEDPEVQFNWYVDGVEVHNAKTKPREEQFNSTYRVVSVLTVLHQDWLNGKEYKCKVSNKGLPSSIEKTISKAKGQPREPQVYTLPPSQEEMTKNQVSLTCLVKGFYPSDIAVEWESNGQPENNYKTTPPVLDSDGSFFLYSRLTVDKSRWQEGNVFSCSVLHEALHYHITQKSLSLSLGK , report pKd.
Result: 8.10
